target: T1, Sushi domain 1 of the GABAB1a receptor, purified (human, UniProt Q9UBS5 26-97)
T1 construct: also called Sushi 1; sushi1
T1 sequence (Q9UBS5 26-97 limits assumed): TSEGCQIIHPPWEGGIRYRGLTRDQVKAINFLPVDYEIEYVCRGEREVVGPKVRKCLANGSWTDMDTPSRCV
assay_overview: ITC, peptide (300 uM) injected into Sushi-1 protein (30 uM), PBS; 17mer peptide, APP695 204-220
measured_attribute: Kd

## Input Using the record for DDSDVWWGGADTDYADG (also called 17AA stretch) [synthetic 17mer peptide, APP695 204-220AA] , report its Kd.
## Output 810 nM
